Entry source: PubChem BioAssay (NCI)

What TGI was measured for each of the following?
Test system: OVCAR-5 ovarian
method.summary: NCI tumour cell line growth inhibition, 48 h

Known TGI results, listed for orientation:
Cc1ccc2oc(=O)cc(CC(=O)O)c2c1	> 100 µM
CCOP(=O)(OCC)c1cc2cc(O)ccc2oc1=O	> 100 µM
Nc1ccc([As](=O)(O)O)cc1	> 100 µM

Please give TGI for each item listed below.
1. OCC(O)C(O)C(O)c1nn[nH]n1 (stereo unspecified)
2. O=C1C[C@@H]2[C@@H](C=CC23CC3)N1O

> 100 µM
> 100 µM

Please give TGI for each item listed below.
1. O=S(=O)(Nc1nc2ccccc2nc1Nc1cccc2ccccc12)c1ccccc1
2. CC[C@]12C=CCN3CC[C@@]4(c5ccc(OC)cc5N(C)[C@H]4[C@@](O)(C(=O)OC)[C@@H]1OC(=O)CCCC[P+](c1ccccc1)(c1ccccc1)c1ccccc1)[C@@H]32

1: > 100 µM; 2: 12.5 µM
